Where do the numbers come from? From ChEMBL document CHEMBL3108667.

EC50: recorded values
measurement-description: cells
protocol-conditions: Homo sapiens, CRL8155
measure: EC50

NC(=O)c1c(-c2ccc3ccccc3c2)nn(CC(F)(F)F)c1N : > 30 µM
COc1ccc2cc(-c3nn(C(C)(C)C)c(N)c3C(N)=O)ccc2c1 : > 40 µM
CC(C)(C)Cn1nc(-c2ccc3ccccc3c2)c(C(N)=O)c1N : > 40 µM
CCOc1ccc2cc(-c3nn(C(C)(C)C)c(N)c3C(N)=O)cnc2c1 : > 30 µM
CC(C)(C)n1nc(-c2cnc3ccccc3c2)c(C(N)=O)c1N : > 40 µM
CCOc1ccc2cc(-c3nn(C(C)(C)C)c(N)c3C(N)=O)ccc2c1 : > 30 µM

---

measurement-description: in vivo
protocol-conditions: mouse, po, 10 mg/kg
measure: Cmax at 1 h

CCOc1ccc2cc(-c3nn(C(C)(C)C)c(N)c3C(N)=O)cnc2c1 : 10 µM

---

measurement-description: in vivo
protocol-conditions: mouse, plasma, po, 10 mg/kg
measure: AUC (µM·h)

CCOc1ccc2cc(-c3nn(C(C)(C)C)c(N)c3C(N)=O)cnc2c1 : 41.7
